test system: MV4-11 cells; test: MV4-11 cell proliferation inhibition experiment (CellTiter-Glo); assay type: cell-based; conditions: Homo sapiens; MV4-11 cells, 72 h, CellTiter-Glo; read-out: Cell proliferation inhibition activity
Returns: string. Value is MET if measured IC50 is below 30 nM, and NOT MET if it is greater than or equal to it.

Incoming: Take the compound `Nc1nccc(Sc2cnc(N3CCC4(CC3)Cc3ccc(F)cc3[C@H]4N)n3ccnc23)c1Cl` and say whether its IC50 is less than 30 nM.
Outgoing: MET

Incoming: Take the compound `N#Cc1cccc2c1CC1(CCN(c3ncc(Sc4ccnc(N)c4Cl)c4nncn34)CC1)[C@@H]2N` and say whether its IC50 is less than 30 nM.
Outgoing: NOT MET

Incoming: Take the compound `Nc1nccc(Sc2cnc(N3CCC4(CC3)Cc3cnccc3[C@H]4N)n3ccnc23)c1Cl` and say whether its IC50 is less than 30 nM.
Outgoing: NOT MET

Incoming: Take the compound `Nc1nccc(Sc2cnc(N3CCC4(CC3)Cc3ccncc3[C@H]4N)n3ccnc23)c1Cl` and say whether its IC50 is less than 30 nM.
Outgoing: NOT MET

Incoming: Take the compound `Nc1nccc(Sc2cnc(N3CCC4(CC3)Cc3ccccc3[C@H]4N)n3cnnc23)c1Cl` and say whether its IC50 is less than 30 nM.
Outgoing: MET

Incoming: Take the compound C[C@@H]1OCC2(CCN(c3ncc(Sc4ccnc(N)c4Cl)n4nccc34)CC2)[C@@H]1N [Positive control aa, reference compound] and say whether its IC50 is less than 30 nM.
Outgoing: NOT MET

Incoming: Take the compound `Nc1nccc(Sc2cnc(N3CCC4(CC3)Cc3cccnc3[C@H]4N)n3ccnc23)c1Cl` and say whether its IC50 is less than 30 nM.
Outgoing: MET

Incoming: Take the compound `COc1cccc2c1CC1(CCN(c3ncc(Sc4ccnc(N)c4Cl)c4nncn34)CC1)[C@@H]2N` and say whether its IC50 is less than 30 nM.
Outgoing: MET

Continuing:
Incoming: Take the compound `Nc1nccc(Sc2cnc(N3CCC4(CC3)Cc3nccnc3[C@H]4N)n3ccnc23)c1Cl` and say whether its IC50 is less than 30 nM.
Outgoing: NOT MET

Incoming: Take the compound `Nc1nccc(Sc2cnc(N3CCC4(CC3)Cc3cnccc3[C@H]4N)n3cnnc23)c1Cl` and say whether its IC50 is less than 30 nM.
Outgoing: NOT MET

###

Measured IC50 by item
target: SHP2 E76A protein (Homo sapiens, UniProt Q06124, E76A); assay: SHP2 enzyme activity inhibition test (DiFMUP substrate, fluorescence); format: biochemical; conditions: 50 ng SHP2 E76A, 20 min with compound, then 10 uM DiFMUP 20 min at room temperature
Sequence (Q06124 whole entry E76A): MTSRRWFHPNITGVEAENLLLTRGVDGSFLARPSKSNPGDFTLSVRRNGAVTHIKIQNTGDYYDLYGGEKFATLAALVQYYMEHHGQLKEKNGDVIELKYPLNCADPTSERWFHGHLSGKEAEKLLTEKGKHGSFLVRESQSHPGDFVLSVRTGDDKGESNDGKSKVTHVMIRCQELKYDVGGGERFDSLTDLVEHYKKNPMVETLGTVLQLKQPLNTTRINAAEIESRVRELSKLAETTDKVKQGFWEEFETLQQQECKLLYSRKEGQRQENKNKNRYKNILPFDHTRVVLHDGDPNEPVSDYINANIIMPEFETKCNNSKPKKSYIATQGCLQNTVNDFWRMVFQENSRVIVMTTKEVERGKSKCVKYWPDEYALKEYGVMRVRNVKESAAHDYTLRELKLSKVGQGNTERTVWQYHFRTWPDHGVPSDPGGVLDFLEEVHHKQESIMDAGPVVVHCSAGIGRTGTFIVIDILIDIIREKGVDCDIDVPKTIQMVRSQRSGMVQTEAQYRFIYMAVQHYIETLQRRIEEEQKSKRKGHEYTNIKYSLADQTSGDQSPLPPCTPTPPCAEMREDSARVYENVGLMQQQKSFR
The reply should be a number in nM, with the unit left off.

Previously resolved entries follow.
Incoming: Supply measured IC50 of `Nc1nccc(Sc2cnc(N3CCC4(CC3)Cc3nccnc3[C@H]4N)n3cnnc23)c1Cl` in your reply.
Outgoing: 6

Incoming: Supply measured IC50 of C[C@@H]1OCC2(CCN(c3ncc(Sc4ccnc(N)c4Cl)n4nccc34)CC2)[C@@H]1N [Positive control aa, reference compound] in your reply.
Outgoing: 26

Incoming: Supply measured IC50 of `Nc1nccc(Sc2cnc(N3CCC4(CC3)Cc3nccnc3[C@H]4N)n3ccnc23)c1Cl` in your reply.
Outgoing: 7

Continue with the compound presented below.
Incoming: Supply measured IC50 of `Nc1nccc(Sc2cnc(N3CCC4(CC3)Cc3cnccc3[C@H]4N)n3ccnc23)c1Cl` in your reply.
Outgoing: 8

###

Measured IC50 by item
biological target: SHP2 E76A protein (Homo sapiens, UniProt Q06124, E76A); assay: SHP2 enzyme activity inhibition test (DiFMUP substrate, fluorescence); conditions: 50 ng SHP2 E76A, 20 min with compound, then 10 uM DiFMUP 20 min at room temperature
The reply should be a number in nM, with the unit left off.

Previously resolved entries follow.
Incoming: Supply measured IC50 of N[C@@H]1c2cccnc2CC12CCN(c1ncc(Sc3ccnc4[nH]ncc34)c3nccn13)CC2 [Compound 23] in your reply.
Outgoing: 9

Incoming: Supply measured IC50 of Nc1nccc(Sc2cnc(N3CCC4(CC3)Cc3ccccc3[C@H]4N)n3ccnc23)c1Cl [Compound 4] in your reply.
Outgoing: 7

Incoming: Supply measured IC50 of Nc1nccc(Sc2cnc(N3CCC4(CC3)Cc3sc(Cl)nc3[C@H]4N)n3ccnc23)c1Cl [Compound 22] in your reply.
Outgoing: 9

Incoming: Supply measured IC50 of CNc1nccc(Sc2cnc(N3CCC4(CC3)Cc3ncccc3[C@H]4N)n3ccnc23)c1Cl [Compound 5] in your reply.
Outgoing: 5

Incoming: Supply measured IC50 of COc1cccc2c1CC1(CCN(c3ncc(Sc4ccnc(N)c4Cl)c4nncn34)CC1)[C@@H]2N [Compound 19] in your reply.
Outgoing: 7

Continuing:
Incoming: Supply measured IC50 of N[C@@H]1c2cccnc2CC12CCN(c1ncc(Sc3ccnc4c3CCO4)c3nccn13)CC2 [Compound 1] in your reply.
Outgoing: 11

Incoming: Supply measured IC50 of Nc1nccc(Sc2cnc(N3CCC4(CC3)Cc3cccnc3[C@H]4N)n3ccnc23)c1Cl [Compound 10] in your reply.
Outgoing: 3

Incoming: Supply measured IC50 of Nc1nccc(Sc2cnc(N3CCC4(CC3)Cc3ccc(F)cc3[C@H]4N)n3ccnc23)c1Cl [Compound 13] in your reply.
Outgoing: 1
